Test system: 454973-116-R2-J3-PDC spheroids, viability, % test/control;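 also: spheroids exposed to compounds for seven days; 100% = DMSO vehicle control viability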
ASSAY_PROCEDURE: Anticancer human tumor 454973-116-R2-J3-PDC patient-derived pancreatic carcinoma cell line growth inhibition [GQUAD]
CONDITION_DESCRIPTION: second compound 10 µM; first compound 0.0316 µM; hits give low values; spheroids with HUVEC and MSC
Description: DNA G-quadruplex Stabilizer Agents in Combinations in Complex Spheroids A high-throughput screen of multi-cell type tumor spheroids was designed to identify active combinations of DNA G-quadruplex stabilizer agents and targeted small molecules. […] Compounds. […] If the clinical Cmax for an agent had not been determined, the highest concentration tested was 10 microM. […]
For each entry below, report its viability, T/C value.
Numbers only, in %.

Worked examples follow.
MOLECULE: CC(C)n1c(=O)n(C)c2cnc3cc(F)c(-c4ccc(OCCCN5CCCCC5)nc4)cc3c21 + Cc1[nH]c2ccc(F)cc2c1-c1nc2c3cccnc3c3ncccc3c2[nH]1
UNIT_TEXT: %
viability, T/C: 101
--
MOLECULE: COc1cc(C2c3cc4c(cc3C(OC3OC5COC(C)OC5C(O)C3O)C3COC(=O)C23)OCO4)cc(OC)c1O (stereo not drawn) + CN(C)c1ccc(Nc2c3ccc(NC(=O)CCN4CCCC4)cc3nc3cc(NC(=O)CCN4CCCC4)ccc23)cc1
UNIT_TEXT: %
viability, T/C: 79.2
--
MOLECULE: CC1COCCN1c1cc(C2(O)CC3CCC(C2)O3)c2cnn(-c3ccn[nH]3)c2n1 (stereo not drawn) + CN(C)c1ccc(Nc2c3ccc(NC(=O)CCN4CCCC4)cc3nc3cc(NC(=O)CCN4CCCC4)ccc23)cc1
UNIT_TEXT: %
viability, T/C: 65.7
--
MOLECULE: COc1ncnc(C2CC2)c1-c1ncc2cnn(Cc3ccc(-c4nc(C(F)(F)F)cn4C(C)C)cc3)c2n1 + CN(C)c1ccc(Nc2c3ccc(NC(=O)CCN4CCCC4)cc3nc3cc(NC(=O)CCN4CCCC4)ccc23)cc1
UNIT_TEXT: %
viability, T/C: 71
--
MOLECULE: CC(=O)O[C@H]1C(=O)[C@@]2(C)[C@H]([C@H](OC(=O)c3ccccc3)[C@]3(O)C[C@H](OC(=O)[C@H](O)[C@@H](NC(=O)c4ccccc4)c4ccccc4)C(C)=C1C3(C)C)[C@]1(OC(C)=O)CO[C@@H]1C[C@@H]2O + CN(C)c1ccc(Nc2c3ccc(NC(=O)CCN4CCCC4)cc3nc3cc(NC(=O)CCN4CCCC4)ccc23)cc1
UNIT_TEXT: %
viability, T/C: 21.6
--
MOLECULE: CC(C)(O)C1CCC(Nc2ccc3ncc(-c4cccc(C(F)(F)F)c4)n3n2)CC1 (stereo not drawn) + Cc1[nH]c2ccc(F)cc2c1-c1nc2c3cccnc3c3ncccc3c2[nH]1
UNIT_TEXT: %
viability, T/C: 87.6
--
MOLECULE: CC1COCCN1c1cc(C2(S(C)(=N)=O)CC2)nc(-c2ccnc3[nH]ccc23)n1 (stereo not drawn) + CN(C)c1ccc(Nc2c3ccc(NC(=O)CCN4CCCC4)cc3nc3cc(NC(=O)CCN4CCCC4)ccc23)cc1
UNIT_TEXT: %
viability, T/C: 80.5

I would be grateful if you could share the reported viability, T/C for C=CC(=O)N1CCN(c2nc(=O)n(-c3c(C)ccnc3C(C)C)c3nc(-c4c(O)cccc4F)c(F)cc23)C(C)C1 (stereo not drawn) + Cc1[nH]c2ccc(F)cc2c1-c1nc2c3cccnc3c3ncccc3c2[nH]1 .
93.8
